# System: HCC1395
# assay.method.text: GRmax, 72 h; higher = less effect
recorded.endpoint: GRmax, 72 h (GR)
Quick reminder: number only, in GR, skip the unit.

compound	tgt	unit.string	measured.number
O=C1NC(=O)[C@@H](c2cn3c4c(cccc24)CCC3)[C@@H]1c1c[nH]c2ccccc12 [Tivantinib/ARQ197] (max 10 µM)	HCC1395	GR	-0.483
CC1(N)CCN(c2cnc(-c3cccc(Cl)c3Cl)c(N)n2)CC1 [SHP099] (max 10 µM)	HCC1395	GR	0.548
CN(C)CC[C@H](CSc1ccccc1)Nc1ccc(S(=O)(=O)NC(=O)c2ccc(N3CCN(Cc4ccccc4-c4ccc(Cl)cc4)CC3)cc2)cc1[N+](=O)[O-] [ABT-737] (max 10 µM)	HCC1395	GR	0.861

Proceeding to the next compound to report its GRmax, 72 h.
Param item = CN(C)C(=O)c1cc2cnc(Nc3ccc(N4CCNCC4)cn3)nc2n1C1CCCC1 [LEE011/Ribociclib] (max 10 µM) ; retrieve measured GRmax, 72 h.
0.403

###

# System: PDX1328
# assay.method.text: GRmax, 72 h; higher = less effect
recorded.endpoint: GRmax, 72 h (GR)
# value in GR; strip the unit string

compound	GRmax, 72 h / GR
CN1CCN(CCOc2cc(OC3CCOCC3)c3c(Nc4c(Cl)ccc5c4OCO5)ncnc3c2)CC1 [Saracatinib/AZD0530] (max 10 µM)	-0.108
Cc1nc(Nc2ncc(C(=O)Nc3c(C)cccc3Cl)s2)cc(N2CCN(CCO)CC2)n1 [Dasatinib] (max 10 µM)	-0.401

Report GRmax, 72 h for CO[C@@H](C)Cn1c(=O)n(C)c2cnc3ccc(-c4cncc(C(C)(C)O)c4)cc3c21 (max 10 µM) please.
0.0061

###

# Test system: HCC1187
# assay.method.text: GRmax, 72 h; higher = less effect;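 also: breast cell lines in 384-well plates, nine doses across a 10^4 range, Dye Drop imaging of viable cells vs DMSO and time-zero plates, GR 0 means no net growth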
recorded.endpoint: GRmax, 72 h (GR)
Supply the numeric figure in GR, leaving out any unit text.

Give recorded GRmax, 72 h with HCC1187 for the following compound: CC(C)n1nc(-c2ccc3oc(N)nc3c2)c2c(N)ncnc21 [INK128/MLN0128] (max 3.162 µM)
0.0961

Given the entry CCN1CCN(Cc2ccc(Nc3ncc(F)c(-c4cc(F)c5nc(C)n(C(C)C)c5c4)n3)nc2)CC1 (max 10 µM) , what GRmax, 72 h was observed with HCC1187?
0.0999

Report GRmax, 72 h for CN(C)C(=O)c1cc2cnc(Nc3ccc(N4CCNCC4)cn3)nc2n1C1CCCC1 [LEE011/Ribociclib] (max 10 µM) tested on HCC1187.
0.56

Record lookup: for HCC1187, what GRmax, 72 h belongs to CN(C)C/C=C/C(=O)Nc1ccc(C(=O)Nc2cccc(Nc3cc(-c4c[nH]c5ccccc45)ncn3)c2)cc1 [THZ-P1-2] (max 10 µM) ?
0.283

Please tell me: GRmax, 72 h of CC(C)Nc1cc(-c2c[nH]c(C(=O)N[C@H](CO)c3cccc(Cl)c3)c2)c(Cl)cn1 [BVD523] (max 10 µM) , system HCC1187?
0.649

Request body: readout GRmax, 72 h, system HCC1187, query CS(=O)(=O)N1CCN(Cc2cc3nc(-c4cccc5[nH]ncc45)nc(N4CCOCC4)c3s2)CC1 [Pictilisib/GDC0941] (max 10 µM) . Return the value.
-0.293
